- Test system: MOLT-4
- Assay method text: NCI tumour cell line growth inhibition, 48 h
Calls of active or inactive are those of the source. Cut-off read from the data, not from the text of the source: active = GI50 up to about 1.1 µM and inactive = higher.
GI50: recorded values
Measurement kind: GI50

> print(dat)
                                    molecule               result
 1     CNS(=O)(=O)NN(C)S(=O)(=O)c1ccc(Cl)cc1  > 100 µM (inactive)
 2  CC(C)NC(=O)OCC[S+]([O-])c1c(Cl)c(Cl)nn1C (stereo not given)   34.8 µM (inactive)
 3  CN1CCCC2(CCCc3ccccc32)C1 (stereo not given)  > 100 µM (inactive)
 4  [O-][n+]1c(CN2CCCCC2)nc2cccc3c2c1-c1ccccc1-3  > 100 µM (inactive)
 5      NCC(O)CSP(=O)(O)O (stereo not given)  > 100 µM (inactive)
 6  CCOC(C)O[C@H]1C(=O)OCC1(C)C (stereo not given in full)   34.9 µM (inactive)
 7  Cn1c(=O)c2c(nc3n2CCCC(=O)N3CC(O)CCl)n(C)c1=O (stereo not given)  > 100 µM (inactive)
 8  CCOC(=O)CN1C(=O)c2c(NC(=O)C(=O)O)cccc2S1(=O)=O  > 100 µM (inactive)
 9  O=C(CCC(=O)Nc1ccc(Cl)c(Cl)c1)CC(=O)c1ccc(Cl)cc1  > 100 µM (inactive)
10            COc1ccc(C(=O)CCN(C)C)c2ccccc12   17.9 µM (inactive)

* * *

Recorded GI50 for the following compounds
- Tested on: T47D
- Assay method text: NCI tumour cell line growth inhibition, 48 h
Activity calls are given as the source filed them. No stated cut-off is given here; in the data, active = GI50 up to about 1.1 µM and inactive = higher.
Measurement kind: GI50

Compound	System	Result
O=C(O)C(CO)NC(=O)C1C(C(=O)O)C(c2ccccc2[N+](=O)[O-])C=C(c2ccco2)N1c1ccncc1 (centres undefined)	T47D	10.2 µM (inactive)
CC(=O)NC1c2ccccc2C(C)(C)C12CCC1(CC2)OCCO1 (centres undefined)	T47D	> 100 µM (inactive)
C=C1C(=O)OC2/C=C(\C)C3OC3/C=C(/C(=O)OC)C(OC(C)=O)C(OC(=O)C(C)(O)C(C)OC(C)=O)C12 (centres undefined)	T47D	6.3 µM (inactive)
C/C=C(\C)[C@@H](O)C(=O)O[C@@H]1CC(C(C)(C)O)[C@](C)(CCC(=O)OC)[C@H]2[C@H](OC(=O)[C@H](O)[C@H](C)CC)C[C@]3(C)C(=CC[C@H]3[C@H]3CO[C@H](C=C(C)C)C3)[C@]12C (some centres undefined)	T47D	25.7 µM (inactive)
Cc1cc(C)c2c(n1)S(=O)(=O)N(CCCN1CCN(c3cccc(C(F)(F)F)c3)CC1)c1c-2nn(C)c1C	T47D	> 100 µM (inactive)
ClC1=C(Cl)C(Cl)(Cl)SS1	T47D	4.79 µM (inactive)
CN(CC(=O)O)c1ccc(/C=C/c2ccnc3ccccc23)cc1	T47D	20.2 µM (inactive)
O=C1c2ccccc2C(=O)c2c(NCC(O)CO)ccc(NCC(O)CO)c21 (centres undefined)	T47D	> 100 µM (inactive)
Oc1ccc(-c2nc3ccc(F)cc3s2)cc1	T47D	15.1 µM (inactive)
Nc1nc(SC/C=C/c2ccccc2)c2[nH]cnc2n1	T47D	> 100 µM (inactive)
Cc1ccnc2[nH]c(-c3ccccc3)cc(=O)c12	T47D	42.5 µM (inactive)
CC(=O)N(CCc1ccccc1)C(C#N)c1ccccc1 (centres undefined)	T47D	> 100 µM (inactive)
CC(=O)OCC1OC(N2C(=O)/C(=C\c3ccc(Cl)cc3)C(N)=Nc3ccccc32)C(OC(C)=O)C(OC(C)=O)C1OC(C)=O (centres undefined)	T47D	12.4 µM (inactive)
C[C@]12CC[C@@H]3c4cc(Br)c(O)c(Br)c4CC[C@H]3[C@@H]1CC(Br)C2=O (some centres undefined)	T47D	4.65 µM (inactive)

* * *

- System: LOX IMVI
- Assay method text: NCI tumour cell line growth inhibition, 48 h
Calls of active or inactive are those of the source. Cut-off read from the data, not from the text of the source: active = GI50 up to about 1.1 µM and inactive = higher.
Measurement kind: GI50

Molecule	Measurement kind	Result
C/C(=N\N=C(N)N)c1sc(-c2nc(C)c(/C(C)=N/N=C(N)N)s2)nc1C	GI50	> 42.5 µM (inactive)
CC1(C)O[C@H]2OC(CO[Si](C)(C)C(C)(C)C)C(N=[N+]=[N-])[C@H]2O1 (stereo partly specified)	GI50	21 µM (inactive)
O=C(O)CC(C(=O)O)C1c2ccccc2-c2ccccc21 (stereo unspecified)	GI50	38.5 µM (inactive)
C=C(CCC/C(C)=C/C=C/[C@H](C)CCCc1ccoc1)C[C@@H]1OC(=O)[C@H](C)[C@@H]1O	GI50	13.6 µM (inactive)
CNc1ccc2nc(-c3ccc(OC(=O)N(C)C)cc3)cn2c1	GI50	17.7 µM (inactive)
Nc1nc(SC/C=C/c2ccccc2)c2[nH]cnc2n1	GI50	53.1 µM (inactive)
C=C[C@@H]1C[C@]2(C(=O)OC)Cc3nc4ccccc4nc3CC(C(=O)OC)=C2O1	GI50	45.6 µM (inactive)
O=C(/C=C/c1ccc(O)cc1)c1ccc(O)cc1 [4,4'-DIHYDROXYCHALCONE]	GI50	11.4 µM (inactive)
[O-][n+]1c(CN2CCCCC2)nc2cccc3c2c1-c1ccccc1-3	GI50	19.4 µM (inactive)
c1ccc(SCCCC(Sc2ccccc2)Sc2ccccc2)cc1	GI50	> 100 µM (inactive)
O=C1/C(=C/c2ccc(Cl)cc2)CCC/C1=C\c1ccc(O)c(CN2CCCCC2)c1	GI50	13.1 µM (inactive)
Cc1cc(O)nc(NN2C(Cl)C(=O)C2c2c(O)ccc3ccccc23)n1 (stereo unspecified)	GI50	13.7 µM (inactive)
O=C1CSC2(CC(/C=C/c3ccccc3)=NN2c2cccc(S(=O)(=O)O)c2)N1c1nc2ccccc2s1 (stereo unspecified)	GI50	9.59 µM (inactive)
CCCCCCCCCCCCC(=O)CCCCC(=O)O	GI50	21 µM (inactive)
Cc1nccn1S(=O)(=O)c1ccc(Br)cc1Br	GI50	40.9 µM (inactive)
O=C1OCC2OC(=O)c3cc(O)c(O)c(O)c3-c3c(O)c(O)c(O)c4c3C(=O)OC(C2OC(=O)c2cc(O)c(O)c(O)c2-c2c1cc(O)c(O)c2O)C1OC(=O)c2c-4c(O)c(O)c(O)c2[C@@H]1C(O)C(O)C(O)C(O)CO (stereo partly specified)	GI50	2.25 µM (inactive)
Oc1ccc(-c2nc3ccc(F)cc3s2)cc1	GI50	20.4 µM (inactive)
Cc1cc(O)c2c(c1O)C(=O)C1=C(C2=O)C(=O)C2C(O)C1C1C(O)CC(O)=C3C(=O)c4c(O)cc(C)c(O)c4C(=O)C321 (stereo unspecified)	GI50	1.57 µM (inactive)
COc1cc2c3c(c1OC)Oc1ccc(cc1)CC1c4c(cc(OC)c(OC)c4Oc4ccc(cc4)CC3N(C)CC2)CCN1C (stereo unspecified)	GI50	17.7 µM (inactive)
Nc1n[nH]c2nc3ccc(C(F)(F)F)cc3nc12	GI50	18.6 µM (inactive)
COC(=O)[C@]12CSC[C@H]1C[C@H](c1ccccc1OC)N2	GI50	> 100 µM (inactive)
COc1cccc2c1C1(O)C2CCCCCCCCCC12OCCCO2 (stereo unspecified)	GI50	10.5 µM (inactive)
CC1=CC2C(=O)N(c3ccccc3)C(=O)C2CC1n1[nH]c(=O)n(Cc2ccccc2)c1=O (stereo unspecified)	GI50	> 100 µM (inactive)
CCCCCCCCCCCCOC1C(COCCN2CCCCC2)OC2OC(C)(C)OC21 (stereo unspecified)	GI50	1.55 µM (inactive)
Cc1ccnc2[nH]c(-c3ccccc3)cc(=O)c12	GI50	0.0149 µM (active)
O=[N+]([O-])c1ccc(S(=O)(=O)Cc2ccccc2)c2nonc12	GI50	19.2 µM (inactive)
C/C=C(\C)[C@@H](O)C(=O)O[C@@H]1CC(C(C)(C)O)[C@](C)(CCC(=O)OC)[C@H]2[C@H](OC(=O)[C@H](O)[C@H](C)CC)C[C@]3(C)C(=CC[C@H]3[C@H]3CO[C@H](C=C(C)C)C3)[C@]12C (stereo partly specified)	GI50	17.6 µM (inactive)
COc1cc2c(cc1OC)[C@@H](C(O)c1ccccc1)NCC2 (stereo partly specified)	GI50	> 100 µM (inactive)
CC(C)(C)C(=O)C(C(=O)c1ccccc1)C(=O)C(C)(C)C	GI50	> 100 µM (inactive)
CN(CC(=O)O)c1ccc(/C=C/c2ccnc3ccccc23)cc1	GI50	22.3 µM (inactive)
CC(C)(C)c1cc(C(C)(C)C)c2sc(=S)oc2c1O	GI50	5.05 µM (inactive)

* * *

Entries and their GI50
- Test system: NCI/ADR-RES
- Assay method text: NCI tumour cell line growth inhibition, 48 h
Active and inactive are the calls of the source. No stated cut-off is given here; in the data, active = GI50 up to about 1.1 µM and inactive = higher.
Measurement kind: GI50

> print(dat)
                                        mol                result
1  O=C(c1cc(Cl)cc(Cl)c1)N(Cc1cccnc1)C(=S)N(Cc1cccnc1)C(=O)c1cc(Cl)cc(Cl)c1    37.4 µM (inactive)
2  Cc1cc(N(CCC#N)CCC#N)ccc1C(/N=N/c1ccc([N+](=O)[O-])cc1)=N\NC(=O)c1ccccc1    51.5 µM (inactive)
3                    ClC1=C(Cl)C(Cl)(Cl)SS1  > 7.21 µM (inactive)
4             COc1cc(C(=O)O)ccc1OS(=O)(=O)O   > 100 µM (inactive)
